- procedure_text: Oral bioavailability in rat at 10 mg/kg
- Assay type: ADME, organism-based
- stated_conditions: in vivo
observable: bioavailability (%)
Field: numeric (%). Do not append units.

CSc1ccc(-c2cn(C)nc2C2CCC(F)(F)CC2C(=O)NCC#N)cc1 (racemic) ... 100

Turning now to a further molecule:
So for CSc1ccc(-c2ccccc2C2CCC(F)(F)CC2C(=O)NCC#N)cc1 (racemic; form 1) , the logged bioavailability turned out to be 39

====

- Species on record: Homo sapiens
- procedure_text: Selectivity for human cathepsin K over human cathepsin S
observable: Selectivity ratio
Simply state the number, no unit and no words.

Answered cases to consult:
N#CCNC(=O)C1CC(F)(F)CCC1c1cnccc1-c1ccc(SCF)cc1 (racemic) ... 450
CSc1ccc(-c2cnccc2C2CCC(F)(F)CC2C(=O)NCC#N)cc1 (racemic) ... 720
CSc1ccc(-c2c(C3CCC(F)(F)CC3C(=O)NCC#N)cc[nH]c2=O)cc1 (racemic) ... 310
CSc1ccc(-c2c[n+]([O-])ccc2C2CCC(F)(F)CC2C(=O)NCC#N)cc1 (racemic) ... 480
CSc1ccc(-c2ncccc2C2CCC(F)(F)CC2C(=O)NCC#N)cc1 (racemic) ... 850

Then this compound:
Entry CSc1ccc(-c2ccccc2C2CCC(F)(F)CC2C(=O)NCC#N)cc1 (racemic; form 2) ; Selectivity ratio = 1100
